The reported measurements were obtained from paper PMC11905058.

- System: MDRAB (329-53)
- Measurement Parameters: in combination with hirunipin 2
Examples of compounds with documented [A]: MIC of antibiotic in combination follow.
Parameter Measured: [A]: MIC of antibiotic in combination (µg/mL)

Compound Smiles | Readout Units | Recorded Number
O=C(N[C@H](CO)[C@H](O)c1ccc([N+](=O)[O-])cc1)C(Cl)Cl | µg/mL | 128
CO[C@H]1/C=C/O[C@@]2(C)Oc3c(C)c(O)c4c(O)c(c(/C=N/N5CCN(C)CC5)c(O)c4c3C2=O)NC(=O)/C(C)=C\C=C\[C@H](C)[C@H](O)[C@@H](C)[C@@H](O)[C@@H](C)[C@H](OC(C)=O)[C@@H]1C | µg/mL | 1
CN(C)[C@@H]1C(O)=C(C(N)=O)C(=O)[C@@]2(O)C(O)=C3C(=O)c4c(O)cccc4[C@@](C)(O)[C@H]3C[C@@H]12 | µg/mL | 2
O=C(O)c1cn(C2CC2)c2cc(N3CCNCC3)c(F)cc2c1=O | µg/mL | 32
